Test: in vivo
Settings: SD, rat, po, 50 mg/kg
measurement_name: Tmax (min)
Write it as a number; the unit min goes unstated.

Prompt: I am curious: what Tmax value has been reported for `O=c1[nH]cc(F)c(=O)[nH]1` ?
Completion: 40

###

Assay: in vivo
Details: SD, rat, po, 50 mg/kg
measurement_name: Cmax

Prompt: Fill in the blank: the reported Cmax of O=c1[nH]cc(F)c(=O)[nH]1 [5-FU, 5-Fluorouracil] is ____.
Completion: 21000 ng/mL
